# MEASUREMENT NOTES: inhibitors of TNFa-induced NFkB p65 translocation, primary screen, imaging, HUVEC, MLSMR starter and 10KST1 sets (AID 438);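 further: compound added about 3h40 before a 20 min TNFalpha stimulation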
# TEST PARAMETERS: HUVEC TNFa-induced p65 nuclear translocation; measured here: nuclei count (cytotoxicity indicator), at 2.08 µM
Output: class label from cell count. Mapping: low interval (below 400), middle interval (400 to below 600), high interval (600 or more)

Answered examples (5):
## Input GET /class?item= CC1(C(=O)NC2CCCCC2)CCC(=O)N1Cc1cccs1 (stereo unspecified)
## Output high interval

## Input GET /class?item= Nn1c(SCC(=O)Nc2ccccc2)nnc1-c1cccnc1
## Output middle interval

## Input GET /class?item= CC1Cc2ccccc2N1C(=O)c1cnsn1 (stereo unspecified)
## Output high interval

## Input GET /class?item= Cc1cc(C(=O)Nc2c(F)cc(F)cc2Br)no1
## Output low interval

## Input GET /class?item= Cc1cccc(NC(=O)c2oc3c(c2C)C(=O)CC(C)(C)C3)n1
## Output low interval

Further cases:
## Input GET /class?item= Cc1ccc(S(=O)(=O)N2CCC(C(=O)N3CCN(Cc4ccccc4)CC3)CC2)cc1
## Output high interval

## Input GET /class?item= CC(C)C(C(=O)Nc1ccc2c(c1)OCO2)N1C(=O)c2ccccc2C1=O (stereo unspecified)
## Output high interval

## Input GET /class?item= COc1ccc(C)cc1S(=O)(=O)N(C)CC(=O)Nc1ccc2c(c1)OCCO2
## Output middle interval

## Input GET /class?item= Cc1cnc(NC(=O)CSc2nnc(-c3ccccc3)n2Cc2ccccc2)s1
## Output high interval

## Input GET /class?item= Cn1c(=O)cc(OCCCC(=O)N2CCCCC2)c2ccccc21
## Output low interval

## Input GET /class?item= Cc1ccc(-c2cc(C(F)F)nc(N3CCC(C)CC3)n2)cc1
## Output high interval

## Input GET /class?item= COCCN1C(=O)c2oc3c(C)cc(C)cc3c(=O)c2C1c1cccc(O)c1 (stereo unspecified)
## Output middle interval

###

# MEASUREMENT NOTES: blockers of RIG-like receptor reporter activation – cell-based, Sendai virus stimulus, luciferase, 10K MLSCN set, TLR/RLR signaling modifier project, primary screen (AID 602276);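 further: firefly luciferase from ISG56 promoter only with Renilla not read in this screen; 0% = Sendai virus plus DMSO and 100% = medium plus DMSO without virus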
# TEST PARAMETERS: HEK293 RL24 IRF3 luciferase reporter, at 10 µM, stronger effect = higher value
# inhibition listing for each entry below
Use % as the unit, but write only the number.

These solved cases illustrate the format of a correct answer.
## Input Give its inhibition value. Item: CC1CCCCN1CCNC(=O)c1ccc2c(=O)n(CCc3ccccc3)c(=O)[nH]c2c1 (stereo not given)
## Output 2.66

## Input Give its inhibition value. Item: O=C(CN1CCOCC1)Nc1cccc(C(=O)Nc2cccc(C(F)(F)F)c2)c1
## Output 7.38

## Input Give its inhibition value. Item: CCc1nn(CC(=O)NCCCN2CCc3ccccc3C2)c(=O)c2cc3sccc3n12
## Output 2.67

## Input Give its inhibition value. Item: O=C(Nc1cccc2ccccc12)c1ccc(Br)o1
## Output 2.74

## Input Give its inhibition value. Item: Cc1cnc(C(=O)Nc2ccc(N3CCN(C(=O)OC(C)(C)C)CC3)cc2)cn1
## Output -2.13

Further cases:
## Input Give its inhibition value. Item: CCOC(=O)N1CCN(C(=O)c2ccc3nc4cc(Cl)ccc4c(=O)n3c2)CC1
## Output 6.58

## Input Give its inhibition value. Item: CC1N=C2c3ccccc3N=C(SCc3cc(=O)n4cc(Cl)ccc4n3)N2C1=O (stereo not given)
## Output 13.1

## Input Give its inhibition value. Item: CC1CCN(CC(O)COC2CCC(C(C)(C)C)CC2)CC1 (stereo not given)
## Output 6.5

## Input Give its inhibition value. Item: Cc1ccc(N2C(N)=NC(N)=NC23CCCC3)c(C)c1
## Output 10

## Input Give its inhibition value. Item: COc1ccc(C(O)Cn2c(=N)n(CCCN(C)C)c3ccccc32)cc1 (stereo not given)
## Output -10.7

###

# MEASUREMENT NOTES: endothelial E-selectin expression blockers – imaging, HUVEC, immunofluorescence, MLSMR starter and 10KST1 sets, primary screen (AID 487);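 further: 100% = median nuclei count of all wells on the same plate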
# TEST PARAMETERS: HUVEC TNFalpha-induced E-selectin immunofluorescence imaging, at 2 µM; measured here: cell number, toxicity
MEASURED PROPERTY: nuclei count
# include the unit after the value

## Input Give its nuclei count value. Item: Cc1cccc(C)c1NC(=O)CC(NCc1ccco1)C(=O)O (stereo unspecified)
## Output 105%

Further cases:
## Input Give its nuclei count value. Item: Cc1ccc(S(=O)(=O)C2(C(=O)Nc3cccnc3)CC2)cc1
## Output 98.8%

## Input Give its nuclei count value. Item: Cc1ccccc1Cn1ccc(NC(=O)c2cnn3c(C(F)(F)F)cc(-c4ccco4)nc23)n1
## Output 99.2%

## Input Give its nuclei count value. Item: O=C(O)C1CCCCC1C(=O)Nc1ccccn1 (stereo unspecified)
## Output 83.2%

## Input Give its nuclei count value. Item: Cc1ncc(CO)c2c1OC(C)(C)OC2
## Output 97.7%

## Input Give its nuclei count value. Item: CC1CN(C(=O)CSc2ncnc3sccc23)CC(C)O1 (stereo unspecified)
## Output 102%

###

# MEASUREMENT NOTES: inhibitors of TNFa-induced NFkB p65 translocation, primary screen, imaging, HUVEC, MLSMR starter and 10KST1 sets (AID 438);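 further: compound added about 3h40 before a 20 min TNFalpha stimulation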;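 on inhibition: signal is the nuclear over cytoplasmic p65 intensity ratio per well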
# TEST PARAMETERS: HUVEC TNFa-induced p65 nuclear translocation; at 2 µM, stronger effect = higher value, 0% TNFa-plus-vehicle, 100% no-TNFa wells
MEASURED PROPERTY: inhibition (%)
Use % as the unit, but write only the number.

## Input Give its inhibition value. Item: O=S(=O)(c1ccc(F)cc1)N1CCC(N2CCCC2)CC1
## Output 12.4

## Input Give its inhibition value. Item: CCc1nnc(NC(=O)CSc2nnc(-c3ccoc3C)n2CC(C)C)s1
## Output 3.2

## Input Give its inhibition value. Item: CC(=O)c1cc2c(=O)c3cc(C)ccc3oc2nc1C
## Output 5.3

## Input Give its inhibition value. Item: CN(C)C(=O)COc1ccc2cc(-c3ccccc3)c(=O)oc2c1
## Output -4

## Input Give its inhibition value. Item: CCOC(=O)c1nnc2ccnn2c1N
## Output 6.8

Further cases:
## Input Give its inhibition value. Item: NC(=O)C1(N2CCCCC2)CCN(CC(=O)Nc2cc(Cl)ccc2Cl)CC1
## Output -3

###

# TEST SYSTEM: Voltage-gated potassium channel subunit beta-2 (Rattus norvegicus)
# MEASUREMENT NOTES: inhibitors of rat Kvbeta2 reductase activity – biochemical, NADPH fluorescence, primary screen (AID 622);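 further: slope of raw intensity against log time taken from 70 to 1610 s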
# TEST PARAMETERS: recombinant KvBeta, 4-cyanobenzaldehyde reduction, at 10 µM, stronger effect = higher value
Rule: fluorescence slope under -0.4 gives Not satisfied, otherwise Satisfied.

Answered examples (8):
## Input In plain terms: is recorded fluorescence slope at least -0.4 for CC1=C(C(=O)N2CCOCC2)C(c2ccccc2F)C2=C(CCCC2=O)N1 (stereo not drawn) ?
## Output Satisfied

## Input In plain terms: is recorded fluorescence slope at least -0.4 for CCN(C(=O)c1ccnc(C(C)(C)C)c1)c1ccccc1 ?
## Output Satisfied

## Input In plain terms: is recorded fluorescence slope at least -0.4 for O=C(CSc1nc(O)cc(=O)n1-c1ccccc1)N1CCCCC1 ?
## Output Not satisfied

## Input In plain terms: is recorded fluorescence slope at least -0.4 for Cc1ccc(N(C(=O)c2ccncc2)C2C=CS(=O)(=O)C2)cc1 (stereo not drawn) ?
## Output Not satisfied

## Input In plain terms: is recorded fluorescence slope at least -0.4 for CNC(=O)NCCN1CCCC1=O ?
## Output Satisfied

## Input In plain terms: is recorded fluorescence slope at least -0.4 for Cc1cc(N2C(=O)C(O)=C(C(=O)c3ccc(C)o3)C2c2cccs2)no1 (stereo not drawn) ?
## Output Not satisfied

## Input In plain terms: is recorded fluorescence slope at least -0.4 for COc1ccc(OCC(=O)Nc2ccc(N3CCOCC3)c(Cl)c2)cc1 ?
## Output Not satisfied

## Input In plain terms: is recorded fluorescence slope at least -0.4 for CCc1cc2ccc(C)cc2nc1SCC(=O)N1CCN(C(=O)c2ccco2)CC1 ?
## Output Not satisfied

Further cases:
## Input In plain terms: is recorded fluorescence slope at least -0.4 for O=C(CCC(=O)OCCCC(F)(F)C(F)(F)F)NC1CCCCC1 ?
## Output Not satisfied

## Input In plain terms: is recorded fluorescence slope at least -0.4 for CCNS(=O)(=O)c1c(C)cc(N2CCCC2=O)cc1C ?
## Output Not satisfied

## Input In plain terms: is recorded fluorescence slope at least -0.4 for c1ccc(-c2cn3cccnc3n2)cc1 ?
## Output Satisfied

## Input In plain terms: is recorded fluorescence slope at least -0.4 for CN(C)S(=O)(=O)N1CCN(C(=O)N(c2ccccc2)c2ccccc2)CC1 ?
## Output Satisfied

## Input In plain terms: is recorded fluorescence slope at least -0.4 for COC(=O)CCc1c(C)c(C#N)c2nc3ccccc3n2c1N1CCCC1 ?
## Output Satisfied

## Input In plain terms: is recorded fluorescence slope at least -0.4 for CC12CN3CCN(CC(C3)C1(O)CN1CCCCC1)C2 (stereo not drawn) ?
## Output Satisfied
